Tested on: 485176-168-R4-J1-PDC complex spheroid growth
experimentNotes: Anticancer human tumor 485176-168-R4-J1-PDC patient-derived pancreatic adenocarcinoma cell line growth inhibition [RAS]
appliedConditions: second compound 0.0949 µM; first compound 0.0316 µM; active compounds read low
reportedProperty: viability, T/C (%)

compound: C[C@@H](NC(=O)c1ncnc(N)c1Cl)c1ncc(C(=O)Nc2cc(C(F)(F)F)c(Cl)cn2)s1 + CCn1c(-c2cccnc2C(C)OC)c2c3cc(ccc31)N1CCOC(CC(NC(=O)C(C(C)C)N(C)C(=O)C3(F)CCN(C(=O)C#CC(C)(C)N(C)C)CC3)C(=O)N3CCCC(N3)C(=O)OCC(C)(C)C2)C1
testTarget: 485176-168-R4-J1-PDC complex spheroid growth
valueReported: 89.9
--
compound: CCC(CC)c1cc(NC2CCC(N)C2)n2nccc2n1 (stereo not drawn) + CCn1c(-c2cccnc2C(C)OC)c2c3cc(ccc31)N1CCOC(CC(NC(=O)C(C(C)C)N(C)C(=O)C3(F)CCN(C(=O)C#CC(C)(C)N(C)C)CC3)C(=O)N3CCCC(N3)C(=O)OCC(C)(C)C2)C1
testTarget: 485176-168-R4-J1-PDC complex spheroid growth
valueReported: 87
--
compound: C=CC(=O)N1CCN(c2nc(OCC3CCCN3C)nc3c(F)c(-c4nc(N)cc(C)c4C(F)(F)F)c(Cl)cc23)C(C)C1 (stereo not drawn) + CCn1c(-c2cccnc2C(C)OC)c2c3cc(ccc31)N1CCOC(CC(NC(=O)C(C(C)C)N(C)C(=O)C3(F)CCN(C(=O)C#CC(C)(C)N(C)C)CC3)C(=O)N3CCCC(N3)C(=O)OCC(C)(C)C2)C1
testTarget: 485176-168-R4-J1-PDC complex spheroid growth
valueReported: 101
--
compound: Nc1ccn(C2OC(CO)C(O)C2(F)F)c(=O)n1 (stereo not drawn) + CCn1c(-c2cccnc2C(C)OC)c2c3cc(ccc31)N1CCOC(CC(NC(=O)C(C(C)C)N(C)C(=O)C3(F)CCN(C(=O)C#CC(C)(C)N(C)C)CC3)C(=O)N3CCCC(N3)C(=O)OCC(C)(C)C2)C1
testTarget: 485176-168-R4-J1-PDC complex spheroid growth
valueReported: 9.91
--
compound: NC1c2ccccc2OC12CCN(c1cnc3c(N4CCCc5ncccc54)n[nH]c3n1)CC2 (stereo not drawn) + CCn1c(-c2cc(N3CCN(C)CC3)cnc2C(C)OC)c2c3cc(ccc31)-c1csc(n1)CC(NC(=O)C1CC1C)C(=O)N1CCCC(N1)C(=O)OCC(C)(C)C2
testTarget: 485176-168-R4-J1-PDC complex spheroid growth
valueReported: 80.8
--
compound: CC1(O)CCCC1n1c(=O)c(C(F)F)cc2cnc(NC3CCN(S(C)(=O)=O)CC3)nc21 (stereo not drawn) + CCn1c(-c2cccnc2C(C)OC)c2c3cc(ccc31)N1CCOC(CC(NC(=O)C(C(C)C)N(C)C(=O)C3(F)CCN(C(=O)C#CC(C)(C)N(C)C)CC3)C(=O)N3CCCC(N3)C(=O)OCC(C)(C)C2)C1
testTarget: 485176-168-R4-J1-PDC complex spheroid growth
valueReported: 89.2
--
compound: Cc1nc(N2CCC3(CC2)COC(C)C3N)c(CO)nc1Sc1ccnc(N)c1Cl (stereo not drawn) + CCn1c(-c2cccnc2C(C)OC)c2c3cc(ccc31)N1CCOC(CC(NC(=O)C(C(C)C)N(C)C(=O)C3(F)CCN(C(=O)C#CC(C)(C)N(C)C)CC3)C(=O)N3CCCC(N3)C(=O)OCC(C)(C)C2)C1
testTarget: 485176-168-R4-J1-PDC complex spheroid growth
valueReported: 97.3
--
compound: CCN1CCN(Cc2ccc(Nc3ncc(F)c(-c4cc(F)c5nc(C)n(C(C)C)c5c4)n3)nc2)CC1 + CCn1c(-c2cccnc2C(C)OC)c2c3cc(ccc31)N1CCOC(CC(NC(=O)C(C(C)C)N(C)C(=O)C3(F)CCN(C(=O)C#CC(C)(C)N(C)C)CC3)C(=O)N3CCCC(N3)C(=O)OCC(C)(C)C2)C1
testTarget: 485176-168-R4-J1-PDC complex spheroid growth
valueReported: 84.4

###

System: 485176-168-R4-J1-PDC complex spheroid growth
experimentNotes: Anticancer human tumor 485176-168-R4-J1-PDC cell line growth inhibition [RAS]; active means viability on the fitted dose curve at most 10% of control; inactive means the rest;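 also: spheroids exposed to compounds for seven days before readout; luminescence viability expressed relative to DMSO vehicle wells set as 100%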
appliedConditions: second compound 0.000949 µM; first compound 10 µM
Classes used: y for active, n for inactive

compound: CC1(O)CCCC1n1c(=O)c(C(F)F)cc2cnc(NC3CCN(S(C)(=O)=O)CC3)nc21 (configuration not stated) + CCn1c(-c2cc(N3CCN(C)CC3)cnc2C(C)OC)c2c3cc(ccc31)-c1csc(n1)CC(NC(=O)C1CC1C)C(=O)N1CCCC(N1)C(=O)OCC(C)(C)C2
testTarget: 485176-168-R4-J1-PDC complex spheroid growth
group: y
--
compound: NC1c2ccccc2OC12CCN(c1cnc3c(N4CCCc5ncccc54)n[nH]c3n1)CC2 (configuration not stated) + CCn1c(-c2cccnc2C(C)OC)c2c3cc(ccc31)N1CCOC(CC(NC(=O)C(C(C)C)N(C)C(=O)C3(F)CCN(C(=O)C#CC(C)(C)N(C)C)CC3)C(=O)N3CCCC(N3)C(=O)OCC(C)(C)C2)C1
testTarget: 485176-168-R4-J1-PDC complex spheroid growth
group: n
--
compound: CC(Nc1ccc2c(c1)OCCn1cc(N3C(=O)OCC3C(F)F)nc1-2)C(N)=O (configuration not stated) + CCn1c(-c2cccnc2C(C)OC)c2c3cc(ccc31)N1CCOC(CC(NC(=O)C(C(C)C)N(C)C(=O)C3(F)CCN(C(=O)C#CC(C)(C)N(C)C)CC3)C(=O)N3CCCC(N3)C(=O)OCC(C)(C)C2)C1
testTarget: 485176-168-R4-J1-PDC complex spheroid growth
group: n
--
compound: CC(=O)OC12COC1CC(O)C1(C)C(=O)C(O)C3=C(C)C(OC(=O)C(O)C(NC(=O)OC(C)(C)C)c4ccccc4)CC(O)(C(OC(=O)c4ccccc4)C21)C3(C)C (configuration not stated) + CCn1c(-c2cccnc2C(C)OC)c2c3cc(ccc31)N1CCOC(CC(NC(=O)C(C(C)C)N(C)C(=O)C3(F)CCN(C(=O)C#CC(C)(C)N(C)C)CC3)C(=O)N3CCCC(N3)C(=O)OCC(C)(C)C2)C1
testTarget: 485176-168-R4-J1-PDC complex spheroid growth
group: n
--
compound: CC(=O)OC12COC1CC(O)C1(C)C(=O)C(O)C3=C(C)C(OC(=O)C(O)C(NC(=O)OC(C)(C)C)c4ccccc4)CC(O)(C(OC(=O)c4ccccc4)C21)C3(C)C (configuration not stated) + CCn1c(-c2cc(N3CCN(C)CC3)cnc2C(C)OC)c2c3cc(ccc31)-c1csc(n1)CC(NC(=O)C1CC1C)C(=O)N1CCCC(N1)C(=O)OCC(C)(C)C2
testTarget: 485176-168-R4-J1-PDC complex spheroid growth
group: n
--
compound: C[C@@H](NC(=O)c1ncnc(N)c1Cl)c1ncc(C(=O)Nc2cc(C(F)(F)F)c(Cl)cn2)s1 + CCn1c(-c2cccnc2C(C)OC)c2c3cc(ccc31)N1CCOC(CC(NC(=O)C(C(C)C)N(C)C(=O)C3(F)CCN(C(=O)C#CC(C)(C)N(C)C)CC3)C(=O)N3CCCC(N3)C(=O)OCC(C)(C)C2)C1
testTarget: 485176-168-R4-J1-PDC complex spheroid growth
group: n
--
compound: CC(Nc1ccc2c(c1)OCCn1cc(N3C(=O)OCC3C(F)F)nc1-2)C(N)=O (configuration not stated) + CCn1c(-c2cc(N3CCN(C)CC3)cnc2C(C)OC)c2c3cc(ccc31)-c1csc(n1)CC(NC(=O)C1CC1C)C(=O)N1CCCC(N1)C(=O)OCC(C)(C)C2
testTarget: 485176-168-R4-J1-PDC complex spheroid growth
group: n

###

Test system: 485176-168-R4-J1-PDC complex spheroid growth
experimentNotes: Anticancer human tumor 485176-168-R4-J1-PDC cell line growth inhibition [RAS];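 also: spheroids exposed to compounds for seven days before readout; luminescence viability expressed relative to DMSO vehicle wells set as 100%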
appliedConditions: second compound 0.0316 µM; first compound 0.1 µM; active compounds read low
Each entry below lists one item and its recorded viability, T/C value.

compound: Nc1ccn(C2OC(CO)C(O)C2(F)F)c(=O)n1 (stereo not drawn) + C=CC(=O)N1CCN(c2nc(OCC3CCCN3C)nc3c(F)c(-c4nc(N)cc(C)c4C(F)(F)F)c(Cl)cc23)C(C)C1
viability, T/C [%]: 6.18
--
compound: C=CC(=O)Nc1cc(Nc2nccc(-c3cn(C)c4ccccc34)n2)c(OC)cc1N(C)CCN(C)C + C=CC(=O)N1CCN(c2nc(OCC3CCCN3C)nc3c(F)c(-c4nc(N)cc(C)c4C(F)(F)F)c(Cl)cc23)C(C)C1
viability, T/C [%]: 99.7
--
compound: C[C@@H](NC(=O)c1ncnc(N)c1Cl)c1ncc(C(=O)Nc2cc(C(F)(F)F)c(Cl)cn2)s1 + C#Cc1c(F)ccc2cc(O)cc(-c3ncc4c(N5CC6CCC(C5)N6)nc(OCC56CCCN5CC(F)C6)nc4c3F)c12
viability, T/C [%]: 101
